Provenance of the data: PubChem BioAssay AID1421

# experimental system: Prostaglandin E2 receptor EP2 subtype (Homo sapiens)
# method description: EP2 receptor modulators, dose response, cell-based, human EP2, PGE2 EC50 shift (AID 1421)
# reported conditions: EP2-expressing cells, PGE2 EC50 shift by compound; measured here: PGE2 EC50 at 6.7 uM compound
Output: class label from PGE2 EC50 with compound. Mapping: lo: < 0.8 nM; mid: ≥ 0.8 nM and < 1 nM; hi: ≥ 1 nM

Incoming: Please report the category associated with CC(C)NC(=S)NN=C1CCCCCCCCCCC1 , nothing else.
Outgoing: mid

Incoming: Class? Entry: CCOC(=O)c1sc2nc3c(SCC(=O)O)cc(C(=O)c4cc(F)ccc4O)cn3c(=O)c2c1C
Outgoing: lo

Incoming: // bin(item) where item = CCOC1(OCC)C(c2ccc(N)cc2)C(C#N)(C#N)C1(OCC)OCC (stereo unspecified)
Outgoing: lo

Incoming: Class for CCOC(=O)CC(=O)CSc1nc(-c2ccc3c(c2)OCO3)cc(C(F)(F)F)c1C#N ?
Outgoing: hi

Incoming: Form field 'band' for CCOC(=O)c1c(NC(=O)c2ccc(N3C(=O)[C@@H]4[C@H](C3=O)[C@H]3C=C[C@@H]4C3)cc2)sc2c1CC(C)CC2 (stereo partly specified)
Outgoing: hi

Incoming: Given C=CCc1cccc(C=Nc2cc(Br)ccc2O)c1O , name the class its PGE2 EC50 with compound places it in.
Outgoing: mid

Incoming: Classify this compound: c1ccc(-c2cc(-c3ccncc3)nc3ccc4ccccc4c23)cc1
Outgoing: lo

Incoming: In plain terms, what class is Cc1ccc(C(=O)O)cc1NC(=S)NC(=O)c1ccc(-c2ccccc2)cc1 ?
Outgoing: mid

Incoming: For the record CCn1nnc(-c2ccccc2NC(=O)c2cc(OC)cc(OC)c2)n1 , report the class its PGE2 EC50 with compound corresponds to.
Outgoing: mid

Incoming: Exercise: read the entry C=CCn1c(CNC(=O)c2cccs2)nnc1SCC(=O)c1ccc(Br)cc1 and state which class it falls under.
Outgoing: hi

Incoming: Class (by measured PGE2 EC50 with compound) for O=c1nc(-c2ccccc2)cc(-c2ccccc2)[nH]1
Outgoing: hi

Incoming: Looking at CCOc1ccccc1C(=O)Nc1ccsc1C(=O)OC , which class would you pick?
Outgoing: hi

Incoming: // return the class label for CCn1c2ccccc2c2cc(Nc3cc(C)nc4ncnn34)ccc21
Outgoing: hi

Incoming: Any idea which band Fc1ccc(Sc2nc(-c3ccccc3)nnc2C(F)(F)F)cc1 is in?
Outgoing: mid

Incoming: Tag the class for Cc1ccc2oc(=O)n(Cc3ccccc3OC(C)C)c2c1
Outgoing: lo

----------
# experimental system: UniProt:P43116
# Sequence (P43116 whole entry, looked up): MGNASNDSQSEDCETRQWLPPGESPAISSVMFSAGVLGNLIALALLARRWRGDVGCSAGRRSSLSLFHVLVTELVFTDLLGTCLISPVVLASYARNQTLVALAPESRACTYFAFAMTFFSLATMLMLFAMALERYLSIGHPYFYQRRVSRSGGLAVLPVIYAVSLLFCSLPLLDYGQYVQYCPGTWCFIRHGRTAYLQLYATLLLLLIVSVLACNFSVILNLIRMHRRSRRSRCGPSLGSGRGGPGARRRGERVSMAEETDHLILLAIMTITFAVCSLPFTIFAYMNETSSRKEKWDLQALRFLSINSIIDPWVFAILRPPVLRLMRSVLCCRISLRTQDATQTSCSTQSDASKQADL
# method description: EP2 receptor modulators, dose response, cell-based, human EP2, PGE2 EC50 shift (AID 1421)
# reported conditions: EP2-expressing cells, PGE2 EC50 shift by compound; measured here: PGE2 EC50 at 6.7 uM compound
Please respond with reported PGE2 EC50 with compound for every item in the list.
Record the value in nM, omitting the unit from your answer.

Incoming: Data request, read-out PGE2 EC50 with compound, for COC(=O)c1cc2ccsc2n1Cc1cccc(F)c1
Outgoing: 0.95

Incoming: Requested read-out: PGE2 EC50 with compound. Entry: Cc1oncc1-c1csc(-c2ccccc2Cl)n1
Outgoing: 1

Incoming: Entry Fc1ccccc1Nc1nc2c(s1)CCc1ccccc1-2 : reported PGE2 EC50 with compound = ?
Outgoing: 1.03

Incoming: Fill in the blank: the reported PGE2 EC50 with compound of O=C(Nc1ccccc1N1CCCCC1)c1ccc(F)cc1 is ____.
Outgoing: 1.01

Incoming: # query: PGE2 EC50 with compound of entry CSc1nnc(-c2cc3c(s2)-c2ccccc2CC3)o1
Outgoing: 1.15

Incoming: Value lookup for PGE2 EC50 with compound; key = CCCn1c2ccccc2c2nc3ccccc3nc21
Outgoing: 1.21

Incoming: Recorded PGE2 EC50 with compound for Cc1cc2ccccc2nc1SCC(=O)NC1CCCC1 , please?
Outgoing: 1.4
